Test system: Saccharomyces cerevisiae
Measurement Protocol: protein stability index of tFT-peptide fusion (C-terminal peptide) (PSI (0-1 scale)); higher = more stable (slower turnover)
Conditions: genetic background: das1 deletion; temperature: 37 C
Is protein stability index at least 0.7? Then condition met. If not, condition not met.

Some solved cases for reference:
Chain Sequence: TYNVMFSPWRKA
Class Assignment: condition met
--
Chain Sequence: IVGVLAVLVRPV
Class Assignment: condition not met
--
Chain Sequence: WGFLSVVCLSGV
Class Assignment: condition not met

In plain terms: is recorded protein stability index at least 0.7 for IKWRCLFCVCVL ?
condition not met

---

Test system: Saccharomyces cerevisiae
Measurement Protocol: protein stability index of tFT-peptide fusion (C-terminal peptide) (PSI (0-1 scale)); higher = more stable (slower turnover)
Conditions: genetic background: das1 deletion; temperature: 30 C
Collected protein stability index values appear next to each entry.
In your answer, state the number alone without any accompanying words.

Example sequences with recorded protein stability index:
Chain Sequence: HIVYCSSEQIKC
protein stability index: 0.446

Chain Sequence: TRKKENERRKNG
protein stability index: 0.654

Chain Sequence: SVVYVIYCGGIL
protein stability index: 0.31

Chain Sequence: VRFSAVFVKVGV
protein stability index: 0.395

Chain Sequence: PFFHVFLLLLLI
protein stability index: 0.188

Chain Sequence: GYRGRITRLVNG
protein stability index: 0.639

Chain Sequence: VFVGGVSVLILF
protein stability index: 0.438

Chain Sequence: NVVIGLHLLVYI
protein stability index: 0.212

Chain Sequence: IKKKKRKKIKAN
protein stability index: 0.65

Chain Sequence: FSAVVCPTVFLC
protein stability index: 0.603

# query: protein stability index | item FGVLGCAWVWVG | system: Saccharomyces cerevisiae;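 note: PSI is a weighted mean of sequencing reads over stability bins, variants kept only with over 10 reads, mCherry proximal and sfGFP distal, peptide attached via GGGS linker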
0.465

Same read-out for LLPSPLLLYSLS ?
0.434

Same read-out for LKFSLLLPVQVI ?
0.301

Same read-out for TVVIFLCSYITT ?
0.139

Same read-out for DCRFIIFYCVMV ?
0.434

Same read-out for YALVQHRWVYYF ?
0.625

Same read-out for FLSVPHLLFLFI ?
0.494

Same read-out for LFWWCMVFISLI ?
0.285

Same read-out for GFLVPSSPRCHQ ?
0.643

Same read-out for FLTSPSVWRYLF ?
0.693

Same read-out for CSRDVFLFIKFL ?
0.457

Same read-out for ALEFLLLVCRRL ?
0.457

Same read-out for WGLGWRGALVAV ?
0.321

Same read-out for LPLHPHRSRYLV ?
0.674

Same read-out for FGLRVHPIVFIF ?
0.374

Same read-out for FFCYFFEFFICG ?
0.339
